# test.details: yeast display, Sf9 membrane polyspecificity reagent, FACS + sequencing; frameworks hold sequencing errors
measured.property: polyreactivity (PSR sort gate)

>>> observed_value("QVQLVESGGGLVQAGGRLRLSCAASGRIFTRYAMGWYRQAPGKERELVAAINYRGSSTYYADSVKGRFTISRDNAKNTVYLQMNSLKPEDTAVYYCNTYGQTDTYWRYYYWGQGTQVTVSS")
"high polyreactivity"
>>> observed_value("QVQLVESGGGLVQAGGSLRLSCAASGRIFGGYAMGWYRQAPGKERELVAAISARGGSTYYADSVKGRFTISRDNAKNTVYLQMNSLKPEDTAVYYCAAAEASSRGYYDYDYWGQGTQVTVSS")
"low polyreactivity"
>>> observed_value("QVQLVESGGGLVQAGGSLRLSCAASGSTFWGYGMGWYRQAPGKERELVATINQSAGSTYYADSVKGRFTISRDNAKNTVYLQLNSLNPEDPAAYYCATDLIQGAAPFRYDYWGQGTQVTVSS")
"low polyreactivity"
>>> observed_value("QVQLVESVGALVQAGGSLRLSCAASGSIFGSNAMGGYRQAPGKERELVAAITWSGTSTYYADSVKGRFTISRDNAKNTVYLQMNSLKPEDTAVYYCARGGYVRAARLVIPYYYWGQGTQVTVSS")
"low polyreactivity"
>>> observed_value("QVQLVESGGGLVQAGGSLRLSCAASGRTFASYAMGWYRQAPGKERELVAVISRGGSNTNYADSVKGRFTISRDNAKNTVYLQLNSLKPEDTAVYYCADLAFKRYNPGGYDYWGQGTQVTVSS")
"high polyreactivity"
>>> observed_value("QVQLVESGGGIVQAGGSLRLSCAASGITSYFNAMGWYRQAPGKERELVAITWNGGSTYYADSVKGRFTITRDNAKNTVYLQMNSLKPEDTAVYYCAARYRRYNRKYDYWGQGTQVTVSS")
"high polyreactivity"
>>> observed_value("QVQLVESGGCLVQAGGSLRLSCAASGFTLTGNAMGWYRQAPGKERELVADISNSGGTTNYADSVKGRFTISRDNAKNTVYLQMNSLKPDDSAVYYCAADVSYRNIGLEYWGQGTQVTVSS")
"high polyreactivity"
>>> observed_value("QVQLVESGGGLVQAGGSLRLSCAASGRIFRWYAMGWYRQAPGKERELVARITSGSSTYYADSVKGRFTISRDNAKNTVYLQMHSLKPEDTAVYYCATRTLQPGYTYPRYYWGQGTQVTVSS")
"high polyreactivity"
>>> observed_value("QVQLVESGVGLVQAGGSLRLICAASGRTFYWYAMGWYRQAPRKERELVATITRGGRTYYADSVKGRFTISRDNAKNTVYLQMNSLKPEDTAVYDCATVSIAGPRYDYWGQGTQVTVSS")
"high polyreactivity"
>>> observed_value("QVQLVESGGGLVQAGGSLRLSCAASGSTFRTYAMGWYRQAPGKERELVASIDSTGSTNYADSVKGRFTISRDNAKNTVYLQMNSLKPEDTAVYYCAAETYSYPPFYAYDYWGQGTQVTVSS")
"low polyreactivity"
>>> observed_value("HDQLVESGGGLVQAGGSLRLSCAASGFTFYRNAMGWYRQAPGQERELVAAITRGGSTTYADSVKGRFTISRANAKNTVYLQMISLKPDDTAVYYSAKVARADVPGYYKYYYWGQGTQVTVSS")
"high polyreactivity"
>>> observed_value("QVQLVESGGGLDQAGGSLRLSCAASGFTFWRYAMGWYRQAPGKERELVAAISWSGGSTYYADSVKGRFTISRDNAKNTVYLQMNSLKPEDTAVYYCTAQYGSRSYRYGYWGQGTQVTVSS")
"high polyreactivity"
>>> observed_value("QVQLVESGGGLAQAGGSLRLSCAASGNILRINGMGWYRQAPGKERELVASITRSGSTYYADSVKGRFTISRDNAKNTVYLQMNSLKPEDTAVYYCAADSRRYGVRFDYWGQGTQVTVSS")
"low polyreactivity"
>>> observed_value("QVQLVESGGGLVQAGGSLRLSCAASGYILWNAMGWYRPAPGKERELVAAIRFRGGSTSYADSVKGRFTISRDNAKNTVYLQMNSLKPEDTAVYYCNARWWVIRPYQRHDYWGQGTQVTVSS")
"low polyreactivity"
>>> observed_value("QVQLVESGGGLVQAGGSLRLSCSASGFILLAYAMGWYRQAHGKERELVAAITSGGSTHYADSVKGRFTISRDNAKNTVYLQMNSLKPEDTAVYYCANDTVFRYSGNTYGYWGQGTQVTVSS")
"low polyreactivity"
>>> observed_value("QVQLVESGGGLVQAGGSLRLSCAASGSTFGVNAMGWYRQAPGKERELVATISRGTSTNYADSVKGRFTISRDNAKNTVYLQINSLKPEDTAVYYCAKRVFYPGAYRYYYWGQGTQVTVSS")
"high polyreactivity"
>>> observed_value("QVQLVESGGGLVQAGGSLRVSCAASGFTFVGTAMGWYRQAPGKERELVAAITWSGGRTYYADSVKGRFTISRDKAKNTVYLQMNSLTPEDTAVYYCATRWRGRMDYWGQGTQVTVSS")
"high polyreactivity"
>>> observed_value("QVHLVESGGGLVQAGGSLRLSCAASGRTFSKYAMGWYRPAPGKERELVAAITSRGSSTYYADSVKGRFTISRDYAKNTVYLLMNSLKPEDTAVYYCNAGGYYIRTGWYRSGSDYWGQGTQVTVSS")
"high polyreactivity"
>>> observed_value("QVQLVESGGGLVQAGGSLRLSCAASGSTFGTYAMGWYRQAPGKERELVAAISSGDSTTYADSVKGRFTISRDNAKNTVYLQMNSLKPEDTAVYYCAARTFLMRNGGYNYWGQGTQVTVSS")
"low polyreactivity"
>>> observed_value("QVQLVESGGGLVQAGGSLRLSCAASGSIFGYYAMGWYRQAPGKERELVAAISWSGGSTYYADSVKGRFTISRDNAKNTVYLQMNSLKPEDTAVYYCAATSRGNDSQKYYYWGQGTQVTVSS")
"low polyreactivity"
>>> observed_value("QVQLVESGGGLVQAGGSLRLSCAASGSIFKYYAMGWYRQAPGKERELVAAISSGGSTKYADSVKGRFTISRDNAKNTVYLQMNSLKPEDTAVYYCAARDPSRHARRAYDYWGEGTQVTVSS")
"low polyreactivity"
